The entries below are paired with their reported TGI.
System: RPMI-8226 leukemia
Assay: NCI tumour cell line growth inhibition, 48 h

// query Note down TGI recorded for COC(=O)C1CC(C=[N+](C)C)=C(SC)N1 (stereo not given)
// result > 100 µM

// query Given CN1CCN(C(=S)N(C)C(=O)c2ccc(Cl)cc2)CC1 , respond with its TGI.
// result > 100 µM

// query Identify the reported TGI for the following entry. C=CC/C(C(=O)OC)=C(/C(=O)OC)N(CCC)CCC
// result > 100 µM

// query Identify measured TGI associated with C[C@@H]1C[C@H](O)[C@]2(O)O[C@@H]3C[C@@]4(C=O)[C@@H](CC=C5[C@@H]4CC[C@]4(C)[C@@H](C6=CC(=O)OC6)CC[C@]54O)C[C@H]3O[C@@H]2O1
// result 0.349 µM

// query Dear colleague, please send me the reported TGI for COc1ccc(CN2CCCC(C(=O)c3ccc(C(F)(F)F)cc3)C2)c(O)c1 (stereo not given) when you can.
// result 62.4 µM

Next:
// query Note TGI for the molecule shown: Cc1oc2nc(N(C)C)n3nnnc3c2c1C
// result > 100 µM

// query Entry CC(C)=CC1C(C(=O)O)C1(C)C (stereo not given) needs its TGI filled in; supply it.
// result > 750 µM

// query Give TGI for O=C1Oc2cc3c(c4cccc1c24)OCN(c1ccc(Cl)cc1)C3
// result 42.1 µM

// query For COc1ccc(CNc2nc3ccc(C(F)(F)F)cc3nc2-c2ccccc2)cc1OC , write its TGI.
// result > 100 µM

// query Give TGI for the following molecule: CC1=CC=CC(C)(C)CC1(O[Si](C)(C)C)C(F)(F)F (stereo not given)
// result > 100 µM
